protocol-description: NOVARTIS: Cytotoxicity against human hepatocellular carcinoma cell line (Huh7)
Format: toxicity, cell-based, Huh-7
stated-conditions: Huh7 cells (hepatocellular carcinoma cell line)
Peptide text beside a SMILES is read from it. * marks the point of attachment. Boc = CC(C)(C)OC(=O)*; OBn = c1ccc(CO*)cc1
Recorded CC50 by entry
measurement-kind: CC50

# compound, measurement-kind, recorded-value
measured = [
    ("C/C(=C\\c1ccccc1)CN(C(=O)c1ccc(C(C)(C)C)cc1)C(C)C", "CC50", "> 5.25 µM"),
    ("CCC(CC)C(=O)N1CCOc2c(cc(-c3csc4ccccc34)cc2OCc2ccccn2)C1", "CC50", "> 10 µM"),
    ("COc1ccc2c(c1OC)C(=O)N(c1ncc(C)s1)C2", "CC50", "> 10 µM"),
    ("CCC(C)OC(=O)C1=C(C)NC2=C(C(=O)CC(c3ccc(Cl)cc3)C2)C1c1cccc(O)c1 (stereo unspecified)", "CC50", "39.6 µM"),
    ("CC(Nc1cc(C)ccn1)=C(C#N)C#N", "CC50", "> 100 µM"),
    ("Cc1cc(C)c(S(=O)(=O)NCc2ccc(Cl)cc2)c(C)c1", "CC50", "48.9 µM"),
    ("CCCCN1C(=O)NC(c2ccc(NC(=O)c3cccs3)cc2)C(C(=O)OC(C)C)=C1C (stereo unspecified)", "CC50", "> 100 µM"),
    ("Cc1cc(C)n(-c2cc(NN=Cc3cc(Br)ccc3O)nc(C)n2)n1", "CC50", "> 100 µM"),
    ("COc1cccc2c(C)cc(NCc3ccccc3Cl)nc12", "CC50", "> 10 µM"),
    ("Cc1cc(Nc2cccc(C(F)(F)F)c2)nc(N)n1", "CC50", "39.6 µM"),
    ("CCCCCCCSc1c(O)c2ccc(Cl)cc2[nH]c1=O", "CC50", "> 10 µM"),
    ("O=C(NC(=C(Cl)Cl)[P+](c1ccccc1)(c1ccccc1)c1ccccc1)c1ccc(F)cc1", "CC50", "1.74 µM"),
    ("CCOC(=O)c1c(NC(=O)c2ccccc2)sc2c(O)c(CN(CC)CC)ccc12", "CC50", "> 46.8 µM"),
    ("CCc1nc2nc(C)cc(Nc3ccc(F)c(Cl)c3)n2n1", "CC50", "> 100 µM"),
    ("c1ccc(-c2nc3cc4ccccc4cc3nc2-c2ccsc2)cc1", "CC50", "> 100 µM"),
    ("CC(C)CC(NC(=O)OC(C)(C)C)C(=O)NC(Cc1ccccc1)C(=O)OCc1ccccc1 (stereo not drawn) (Boc-Leu-Phe-OBn; configuration not given here)", "CC50", "> 100 µM"),
    ("O=C(NCCCCNc1ccnc2cc(Cl)ccc12)c1cccc(C(F)(F)F)c1", "CC50", "> 10 µM"),
    ("COc1ccc(CNCc2cc3c(-c4ccc(C)cc4)nn(-c4ccccc4)c3[nH]c2=O)cc1", "CC50", "> 100 µM"),
    ("COc1ccc(C=NNc2cc(C)nc(-c3ccccc3)n2)cc1OC", "CC50", "48.9 µM"),
    ("CCN1/C(=C/c2sc3ccccc3[n+]2CC)C=Cc2cc(NC(C)=O)ccc21", "CC50", "> 10 µM"),
    ("CCCCOc1ccc(C(=O)NCCOc2cccc(OC)c2)cc1", "CC50", "> 100 µM"),
    ("C=CCNC(=O)c1ccc2c(c1)N=C(/C=C/c1ccccc1)N(CCc1cccc(OC)c1)C2", "CC50", "> 10 µM"),
    ("COc1cc(CNCCCn2ccnc2)ccc1OCc1ccccc1", "CC50", "> 10 µM"),
    ("Oc1ccc(Nc2ccnc3cc(Cl)ccc23)cc1", "CC50", "39.7 µM"),
    ("CC1(C)O[C@@H]2OC([C@@H](O)CNc3ccc([N+](=O)[O-])cc3[N+](=O)[O-])C(O)[C@@H]2O1 (stereo partly specified)", "CC50", "12 µM"),
    ("CN(CCCNc1ccnc2cc(Cl)ccc12)C(=O)C1CC1", "CC50", "> 7.25 µM"),
    ("CCN1CCC(N2C[C@H](n3cc(C(=O)OC)nn3)C[C@H]2C(=O)NCc2cccc(C(F)(F)F)c2)CC1", "CC50", "> 10 µM"),
    ("CC(C)(C)c1ccc(C(=O)N2CCCn3cccc3C2c2ccc(C(C)(C)C)cc2)cc1 (stereo unspecified)", "CC50", "> 100 µM"),
    ("N#Cc1c(N)nc2sc(C(=O)Nc3ccc(Br)cc3)c(N)c2c1-c1ccccc1", "CC50", "> 100 µM"),
    ("O=C(c1ccc2nc(N3CCCCC3)sc2c1)N1CCN(Cc2ccccc2)CC1", "CC50", "> 100 µM"),
    ("CCCCCn1c(C)[n+](CCCC)c2cc(Cl)c(Cl)cc21", "CC50", "> 100 µM"),
    ("CC(C)CNC(=O)c1cnc(NCCCN(C)C)nc1NCC1CCCCC1", "CC50", "> 10 µM"),
    ("O=C1CC(C(=O)N2CCC(c3nc(-c4cccnc4)ncc3-c3ccccc3)CC2)c2ccccc21 (stereo unspecified)", "CC50", "> 100 µM"),
    ("CCCCCCc1ccc(C(=O)NCCCCNc2ccnc3cc(Cl)ccc23)cc1", "CC50", "> 10.8 µM"),
    ("CN1CCC(N[C@@H]2C[C@@H](C(=O)N3CCN(c4cccc(C(F)(F)F)c4)CC3)N(Cc3ccccc3Cl)C2)CC1", "CC50", "> 10 µM"),
    ("Cc1ccc(OCC(=O)Nc2cccc(-c3nc4ncccc4o3)c2)cc1C", "CC50", "> 100 µM"),
    ("COc1ccc2nc(C)cc(Nc3ccc(Cl)c(Cl)c3)c2c1", "CC50", "6.25 µM"),
    ("COc1ccc(-c2cnc3ccc(NC4CCOCC4)nn23)cc1OC", "CC50", "> 10 µM"),
    ("Cc1ccc(-c2c3c(nc4sc(C(=O)Nc5ccc(Cl)cc5)c(N)c24)CCCC3)o1", "CC50", "> 100 µM"),
    ("O=c1c2sccc2nc(SCc2cccc([N+](=O)[O-])c2)n1-c1ccc(Br)cc1", "CC50", "> 100 µM"),
    ("CN(Cc1ccccc1)c1cc(-c2ccccn2)nc(-c2ccccn2)n1", "CC50", "> 10 µM"),
]

###

System: Plasmodium falciparum
protocol-description: NOVARTIS: Inhibition of Plasmodium falciparum 3D7 (drug-susceptible) proliferation in erythrocyte-based infection assay
Type: functional, organism-based
stated-conditions: Plasmodium falciparum, 3D7
Recorded EC50 by entry

# compound, display-unit, operator-symbol, EC50
measured = [
    ("CCCCCCCCCCCC(=O)Oc1ccccc1-c1nc2ccccn2c1NC(C)(C)CC(C)(C)C", "nM", "=", 1260),
    ("COc1cc(C(=O)NC(c2ccccc2Cl)c2cc(Cl)c3cccnc3c2O)cc(OC)c1OC (stereo not given)", "nM", "=", 6150),
    ("Clc1ccc2[nH]c3c(NCCC4=CCCCC4)ncnc3c2c1", "nM", "=", 988),
    ("CN1CCN(NC=C2C(=O)N(c3nc4ccccc4s3)N=C2c2ccccc2)CC1", "nM", ">", 12500),
    ("COc1cccc(C2(NC(=O)CCn3ccnc3-c3ccccc3)CCCC2)c1", "nM", ">", 1250),
    ("CN(C)c1cc(NC(=O)Nc2ccccc2)c2ccccc2n1", "nM", "=", 148),
    ("C=CC1CN2CCC1CC2[C@H](c1ccnc2ccccc12)S(=O)(=O)O (stereo not given in full)", "nM", "=", 152),
    ("Cc1ccn(C(=O)NCCNC(=O)Nc2ccc(Cc3ccc(NC(=O)NCCNC(=O)n4ccc(C)n4)cc3)cc2)n1", "nM", ">", 953),
    ("CCOC(=O)c1c(CNc2ccncc2)n(C)c2cc(Br)c(OC(C)=O)cc12", "nM", "=", 257),
    ("O=S(=O)(Nc1cc(Sc2nc[nH]n2)c(O)c2ccccc12)c1ccc(F)cc1", "nM", "=", 1600),
]

###

Tested on: Plasmodium falciparum
protocol-description: NOVARTIS: Inhibition of Plasmodium falciparum 3D7 (drug-susceptible) proliferation in erythrocyte-based infection assay
Type: functional, organism-based
stated-conditions: Plasmodium falciparum, 3D7
pEC50: −log10 of the molar value.

# molecule, tgt, operator-symbol, pEC50
records = [
    ("OC(CCNC1CCCCC1)COc1cccc2ccccc12 (centres undefined)", "Plasmodium falciparum", "=", 6.10),
    ("CN(C)c1cccc(Nc2cc(-c3ccc(CC(N)C(=O)O)cc3)nc3ccnn23)c1 (centres undefined)", "Plasmodium falciparum", "=", 6.22),
    ("Cc1cc(Nc2ccc(C)c(C)c2)n2nc(C)nc2n1", "Plasmodium falciparum", "=", 6.74),
    ("Oc1ccccc1C=Nc1ccccc1[Te]c1ccccc1N=Cc1ccccc1O", "Plasmodium falciparum", "=", 8.46),
    ("O=C(Nc1nc(-c2ccccn2)cs1)c1ccc(Oc2ccc(C(=O)Nc3nc(-c4ccccn4)cs3)cc2)cc1", "Plasmodium falciparum", "=", 5.65),
    ("CCc1ccc(C2C(C(=O)Nc3ccccc3)=C(C)Nc3c(C(=O)Nc4ccc(C)cc4)cnn32)cc1 (centres undefined)", "Plasmodium falciparum", "=", 5.82),
    ("CO[C@H]1[C@@H](C)[C@@H]([C@H](C)C2O[C@@]3(CC[C@@](C)([C@H]4CC[C@@](C)([C@@H]5O[C@@H]([C@H]6O[C@](C)(O)[C@H](C)C[C@@H]6C)C[C@@H]5C)O4)O3)C[C@H](O)[C@@H]2C)O[C@@](O)([C@H](C)C(=O)O)[C@H]1C (some centres undefined)", "Plasmodium falciparum", "=", 5.95),
    ("O=[N+]([O-])c1cc(NC2OC(CO)C(OC3OC(CO)C(O)C(O)C3O)C(O)C2O)ccc1Cl (centres undefined)", "Plasmodium falciparum", "<", 6.07),
    ("CCN1CCN(Cc2c(O)ccc3c(=O)c(Oc4cc(C)cc(C)c4)c(C(F)(F)F)oc23)CC1", "Plasmodium falciparum", "=", 5.44),
    ("CCCCCCCC[n+]1c(C)n(C)c2cc(Cl)c(Cl)cc21", "Plasmodium falciparum", "=", 6.28),
    ("COc1ccc(-c2noc(N3CCc4ccccc4C3)n2)cc1", "Plasmodium falciparum", "=", 6.70),
    ("CC(C)CNC(=O)c1cnc(NCCCn2ccnc2)nc1NCCc1ccccc1", "Plasmodium falciparum", "=", 6.22),
    ("CCCCN1Cc2ccc(C(N)=O)cc2N=C1C1CC1", "Plasmodium falciparum", "=", 7.21),
    ("O=C(NCCCN1CCCC1=O)c1cccn2c(=O)c3ccc(Cl)cc3nc12", "Plasmodium falciparum", "<", 5.87),
    ("CCN1CCC(Nc2ccnc3cc4ccccc4cc23)CC1", "Plasmodium falciparum", "=", 7.09),
    ("COc1ccc(C2CC(c3c(-c4ccccc4)c4cc(Cl)ccc4[nH]c3=O)=NO2)cc1 (centres undefined)", "Plasmodium falciparum", "=", 6.20),
    ("O=C(Nc1cnc2ccccc2c1)c1cccc(-n2cnnn2)c1", "Plasmodium falciparum", "=", 6.76),
    ("Cc1cc(I)ccc1NC(=O)CNC(=O)OCc1ccccc1", "Plasmodium falciparum", "<", 4.90),
    ("C=C[C@H]1CN2CC[C@H]1C[C@@H]2[C@@H](OC(=O)CC)c1ccnc2ccccc12", "Plasmodium falciparum", "=", 6.66),
    ("CCCNC(=O)c1cc(NC(=O)c2cc(C(F)(F)F)cc(C(F)(F)F)c2)ccc1N1CCCCC1", "Plasmodium falciparum", "<", 5.81),
    ("N#Cc1ccc2c(c1)nc1c3ccc4c5c(ccc(c(=O)n21)c53)C(=O)NC4=O", "Plasmodium falciparum", "=", 5.40),
    ("CC[C@@H](C(=O)[C@@H](C)[C@@H](O)[C@H](C)CCc1ccc(C)c(O)c1C(=O)O)[C@H]1O[C@](CC)([C@H]2CC[C@](O)(CC)[C@@H](C)O2)C[C@@H]1C", "Plasmodium falciparum", "=", 6.14),
    ("O=C1c2ccccc2-n2c1nc1ccccc1c2=O", "Plasmodium falciparum", "=", 6.67),
    ("Cc1ccc(CN2CCN(Cc3cn(C(C)C)c4ccccc34)CC2CCO)o1 (centres undefined)", "Plasmodium falciparum", "<", 4.90),
    ("COc1ccc(OCC(=O)Nc2cccc(NC(=O)COc3ccc(OC)cc3)n2)cc1", "Plasmodium falciparum", "=", 5.16),
    ("COc1ccc(CNC2CCN(CCN3CCCCC3)C(c3ccc(OCc4ccccc4)cc3)C2)cc1OC (centres undefined)", "Plasmodium falciparum", "=", 6.18),
    ("O=C1C(Sc2nnc[nH]2)=CC(=NS(=O)(=O)c2cccs2)c2ccccc21", "Plasmodium falciparum", "=", 5.82),
    ("NC(=O)Cc1ccccc1", "Plasmodium falciparum", "<", 4.90),
    ("CCN(CC)CCCN(Cc1cc2ccc(C)cc2[nH]c1=O)C(=S)Nc1cccc(Cl)c1", "Plasmodium falciparum", "=", 6.15),
    ("CN(C)c1ccc(/C=C/c2nc(=O)c3ccccc3o2)cc1", "Plasmodium falciparum", "=", 6.89),
    ("COc1cccc(NC(=O)c2ccc(NCCCC3CCCCCC3)c([N+](=O)[O-])c2)c1", "Plasmodium falciparum", "=", 6.65),
    ("COc1cccc(-c2cncc(-c3cncc(OC)c3)n2)c1", "Plasmodium falciparum", "=", 6.15),
    ("CN(CCCNc1ccc(C(=O)Nc2ccc(C(F)(F)F)cc2)cc1[N+](=O)[O-])Cc1ccccc1", "Plasmodium falciparum", "=", 6.50),
    ("O=C1CSc2nc3ccccc3n21", "Plasmodium falciparum", "=", 5.10),
    ("CCN1CC=C2C(C#N)=C(N)C(C#N)(C#N)C(c3ccc(C)s3)C2C1 (centres undefined)", "Plasmodium falciparum", "<", 6.06),
    ("OC(CN1CCN(Cc2ccccc2)CC1)Cn1c2ccc(I)cc2c2cc(I)ccc21 (centres undefined)", "Plasmodium falciparum", "=", 6.19),
    ("COc1ccccc1NC(=O)CCN1CCCC(C)C1 (centres undefined)", "Plasmodium falciparum", "<", 5.78),
    ("CC[n+]1c(/C=C/c2ccc(N(C)C)cc2)sc2cc(NC(C)=O)ccc21", "Plasmodium falciparum", "=", 6.02),
    ("CN(C)CCNC(=O)c1ccc(-c2cncc(NCc3ccc(Cl)c(Cl)c3)c2)cc1", "Plasmodium falciparum", "=", 6.19),
]
